- Test system: PPARg DBDmut IVT, anti-PPARg (DBD mutation: PPARg1 K132A/R137A, NR concentration 270 nM)
- measurement.description: PBM binding z-score (relative to random genomic background probes); higher = stronger binding; sequences stand for … in GC…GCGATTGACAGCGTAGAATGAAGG
recorded.metric: PBM binding z-score
No unit in the answer, only the number.

Field: example entries. Status: answers known.
GCTATTAGTTGAAACGGCAACCGAATGATTCTCG | -0.0923
CAAACTAGGTCACGGAAGGTCAAAGTCGAATGAC | 4.23
AGTCAAAGTTCATCTAGATAACGTAAGATATGCT | 1.73
TCATATAGGTAAATGCTAGGTGAATGTCCGATCT | 1.15
CGAACTAGGTCATTGACGGGACAGTGAATAGTAA | 0.8
ATCCCAAGGTGATCGTGAGGTCGTTGATACTAAC | -0.0144

Task: Look up PBM binding z-score: "AATACAGGGTCATCGTAGGCCGGAGTACGCACAG"
Result: 1.58

Task: Look up PBM binding z-score: "GCTTACGGGTCAAAGGTTATTGCATGAATAGAAT"
Result: 2.94

* * *

Reported PBM binding z-score values for the following sequences.
- Tested on: THRa homodimer (NR concentration 90 nM)
- measurement.description: PBM binding z-score (relative to random genomic background probes); higher = stronger binding; sequences stand for … in GC…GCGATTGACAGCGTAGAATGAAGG
No unit in the answer, only the number.

TCAGCTAGGTCAGTTGGTCAGCTAACGAGCTGCC | -0.339
ATCTCTAGGTAAGACTCAATTCAGTGAAGAACGC | 0.522
CGAACTAGGGCATTGACAGGACAGTGAATAGTAA | -0.0936
AATAGAGGGTCACTAGGCCAGAGTAGGTACGAAT | 0.353
CGAACTAGGTTAGAACAGGACAGTGAAGGATGAT | -0.166
CAAACTAGGACAAAGGTCAAAGTCGAGCCAACCA | 1.18

Here is the next item to consider.
Task: Look up PBM binding z-score: "ACTGGCAGGCCAAGTTTGGGTCACTCAAACAAAG"
Result: 1.14

* * *

Reported PBM binding z-score values for the following sequences.
- Tested on: RARg homodimer (NR concentration 270 nM)
- measurement.description: PBM binding z-score (relative to random genomic background probes); higher = stronger binding; sequences stand for … in GC…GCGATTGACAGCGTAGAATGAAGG
No unit in the answer, only the number.

Field: example entries. Status: answers known.
CGAACAAGGTCAAGGACAGTGAATCTCCGCACGC | 6.35
CCTTACGGGTCACTCCAGTTTATAGCATCGGAGT | 4.22
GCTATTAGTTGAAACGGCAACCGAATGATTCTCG | -0.103
TTACCAAGGTGAAGGTCGTTGTTCCCTCTGTAGA | 1.24
GCTTACGGGTCAAAGGTTGTAGCATGAATAGAAT | 4.09

Task: Look up PBM binding z-score: "ACTAGGAGGCCAAGTTTGGGTCACTCAAACAAAG"
Result: 2.56

Task: Look up PBM binding z-score: "GCTAGCAGGCCATTTGGGTCTCTCAATGACGGGC"
Result: -0.301

Task: Look up PBM binding z-score: "TCTGCTAGGTCAACGATGGTCAGCTACTCTGCTA"
Result: 5.24

Task: Look up PBM binding z-score: "AGAATGAGGTTGTACGTAGATCAGGGAAGAAAGT"
Result: 0.156

* * *

- Test system: PXR:RXRa (NR concentration 270 nM, RXRa partner concentration 90 nM)
- measurement.description: PBM binding z-score (relative to random genomic background probes); higher = stronger binding; sequences stand for … in GC…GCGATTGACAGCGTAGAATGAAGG
Note to self: values exactly at 1 are Fulfilled. So PBM binding z-score at or above 1 is Fulfilled, below is Not fulfilled.

Consider the following illustrative entries.
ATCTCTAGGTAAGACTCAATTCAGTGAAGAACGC | Not fulfilled
TCTTGTAGATCAAAGGGTAAGAAAGCCGAAGCCT | Not fulfilled
CCTTACGGGTTACTGACAGGTTATAGCATTTGGA | Not fulfilled
CCTGGCAGGCCAATCTGGGTCACTCAAGGCTTGA | Not fulfilled

Task: Hi team, for "AGAAAGAGGGCAATGAGTTGATAGCACGGGTGGC" , is the recorded PBM binding z-score at or above 1?
Result: Fulfilled

Task: Hi team, for "CCTACTGGGCCATTCAGAGGTCATAGATCATATG" , is the recorded PBM binding z-score at or above 1?
Result: Fulfilled

Task: Hi team, for "GCGACTGGGGCAAATCAGGTTACCATAAGGTTGG" , is the recorded PBM binding z-score at or above 1?
Result: Fulfilled

Task: Hi team, for "TCACATAGGTAAATGCTAGGTGAAAGTCCGATCT" , is the recorded PBM binding z-score at or above 1?
Result: Not fulfilled

Task: Hi team, for "TAGCCTAGGGCATGCGGGCCAGTATAGTGTCGGC" , is the recorded PBM binding z-score at or above 1?
Result: Not fulfilled

* * *

- Tested on: LXRb homodimer (NR concentration 270 nM)
- measurement.description: PBM binding z-score (relative to random genomic background probes); higher = stronger binding; sequences stand for … in GC…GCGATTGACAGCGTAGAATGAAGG
Could you please classify the records by PBM binding z-score using these ranges: low bin: < -0.6; mid bin: ≥ -0.6 and < 0.1; high bin: ≥ 0.1

Consider the following illustrative entries.
GCGACTGGGCCATCAGCAGGTTACCATAACTTAA | low bin
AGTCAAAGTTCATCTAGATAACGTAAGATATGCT | high bin
ATCTCTAGGTAACCAAGTTCAGTAAATGCCGAAC | high bin
CCTAGTTGGTCAATGTCACACACGCTATAGGTAC | high bin
ACAGACATGTGAGTGAAGGTAACTCAGCTGGACG | mid bin
ATCGAAAGGTCGAGGAGAGTATAGAGAAAGGGAA | high bin
TCATATGGGTAAAAGGTGAAAGTCGGTGTGGTAA | mid bin
GGAACGAGGGCAAAGTGGATAGCATCTGTCGACG | low bin

Task: Class for "TCATATAGGTAAAATGTGAAAGTCGGTGTGGTAA" ?
Result: high bin

Task: Class for "CGAACGAGGGCATGAGTTGAGAGCAAATGCCGAT" ?
Result: low bin

Task: Class for "ATCTCTAGGTAAGACTCAGTTCCGTGAAGAACGC" ?
Result: high bin

Task: Class for "ACGATTAGTTGACTTAGGGCAACCGATACGACGC" ?
Result: mid bin

Task: Class for "TTACCAAGGTGAGCTGAGTTCGTTGATCCAACTC" ?
Result: low bin

Task: Class for "TGGATGAGGTTAAAGATCAGGGAACGTGGCGTCG" ?
Result: high bin

Task: Class for "TCTCGGAGGAAACGAAGGTCAGAGCTTTCCAGAG" ?
Result: low bin

* * *

Reported PBM binding z-score values for the following sequences.
- System: PPARg:RXRa IVT, anti-PPARg (NR concentration 270 nM, RXRa partner concentration 90 nM)
- measurement.description: PBM binding z-score (relative to random genomic background probes); higher = stronger binding; sequences stand for … in GC…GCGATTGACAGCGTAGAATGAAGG

Field: example entries. Status: answers known.
CCTAGCAGTCCAATCTGGGTCACTCAAGGCTTGA | 4.58
AATACAGGGTCATCATAGGCCAGAGTACGCACAG | 3.98
AGAGCGAGGGCACGCTGAGTTGATAGCAGAGTAG | 1.26
CGTCAAAGCTCAAGGTAACGTAACAGAAAGCAGC | -0.221
CCGACTGGGGTAGAAAGGTTACCATACCATCCGG | 1.2

Task: Look up PBM binding z-score: "CCTAGCAGACCAGGGTCACTCAAGCATTTCGCTT"
Result: 0.416

Task: Look up PBM binding z-score: "CGACCGAGGGCATGAGTTGATAGCAAATGCCGAT"
Result: 0.376

Task: Look up PBM binding z-score: "ACCAGCAGGCCAAGTTTGGGTCACTCAAACAAAG"
Result: 0.814

Task: Look up PBM binding z-score: "TCTTGTAGATCAAGCTGGTTAAGAAAGCCTGAGT"
Result: 0.0134

Task: Look up PBM binding z-score: "ACTTACGGGTCCACGAGGTTATAGCACGCGTATA"
Result: 0.67

Task: Look up PBM binding z-score: "AGAATGAGGTTAAGAACAGGGAAACAGAATACAT"
Result: 2.23

Task: Look up PBM binding z-score: "CCTAGCAGGCTAGGGTCACTCAAGCATTTCGCTT"
Result: 0.393

Task: Look up PBM binding z-score: "CCTTACGGGACAAGGTTATAGCACGGGTGGTACG"
Result: 0.0765

Task: Look up PBM binding z-score: "CCTAGTTGGTCAGGAGGTCACACCCCGGATATGA"
Result: 3.66

Task: Look up PBM binding z-score: "TCTCGGAGGACACGAAGGTCAGTGCTTTCCAGAG"
Result: 1.08

Task: Look up PBM binding z-score: "GCTTACGGGTCAAAGGTTAGAGCATGAATAGAAT"
Result: 5.74

Task: Look up PBM binding z-score: "CCGACTGGGGCAAGGTTACCTTAACGCACAGCCA"
Result: 3.76

Values from the supplement of paper PMC6555819
